target: Cytochrome P450 3A4 (Homo sapiens) (UniProt P08684); test: Cytochrome P450 Family 3 Subfamily A Member 4 (CYP3A4) small molecule antagonists: luciferase reporter qHTS assay (AID 1671201); conditions: P450-Glo CYP3A4 enzyme, luciferin luminescence, 1 h; series mostly up to 115 µM; note: nearly all actives have a fitted effect of over 50% in size
Sequence (P08684 whole entry, looked up): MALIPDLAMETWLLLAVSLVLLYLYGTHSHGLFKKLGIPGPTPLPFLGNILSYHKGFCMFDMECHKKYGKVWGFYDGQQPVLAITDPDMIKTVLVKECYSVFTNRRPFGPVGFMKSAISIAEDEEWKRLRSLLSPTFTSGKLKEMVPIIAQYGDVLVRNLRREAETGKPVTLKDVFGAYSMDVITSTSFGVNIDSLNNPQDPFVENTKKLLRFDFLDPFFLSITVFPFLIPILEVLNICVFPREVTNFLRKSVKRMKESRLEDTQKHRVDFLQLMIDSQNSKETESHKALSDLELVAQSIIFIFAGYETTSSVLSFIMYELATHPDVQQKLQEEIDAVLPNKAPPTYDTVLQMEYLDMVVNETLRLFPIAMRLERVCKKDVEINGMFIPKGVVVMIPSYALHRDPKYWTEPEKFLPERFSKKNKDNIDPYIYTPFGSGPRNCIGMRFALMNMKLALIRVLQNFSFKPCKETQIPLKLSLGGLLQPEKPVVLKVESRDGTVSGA
Records with an inconclusive call do not appear. The source made the active and inactive calls. Calls come from the whole dose curve; as a rule, active = well fitted inhibition curve with a large enough effect in the repeat runs; inconclusive = weak or mixed curves; inactive = no such curve, though single readings can be large or run the other way.
# valid calls are T (active), F (inactive); nothing else

INSERT INTO assay_data (compound, assigned_label) VALUES
  ('O=C(O)COCC(=O)O', 'F'),
  ('CC(C)C/C=C(\C=O)c1ccccc1', 'T');

query: Assay outcome for SCCOCCOCCS : what was it?
result: T

query: Outcome logged for CCCCCCCCCCCCCCCCC(=O)O in this assay:
result: F

query: Hi, do you know how O=C(Cl)c1ccc(F)c(Cl)c1 came out in this test?
result: F

----------
target: Luciferin 4-monooxygenase (Photinus pyralis); test: qHTS assay to identify small molecule inhibitors of firefly luciferase (AID 1224835); note: nearly all actives have a fitted effect of over 25% in size; conditions: purified P. pyralis luciferase, luminescence inhibition; series mostly up to 115 µM
Records with an inconclusive call do not appear. Activity calls are given as the source filed them. Calls follow the shape of the dose curve; as a rule, active = well fitted inhibition curve with a large enough effect in the repeat runs; inconclusive = weak or mixed curves; inactive = flat fitted curve, though single readings scatter.
Output constraint: value belongs to active, inactive

Here are 5 compounds together with their reported answers.
INSERT INTO measurements (compound, assigned_label) VALUES
  ('O=C(C1CCCCC1)N1CC(=O)N2CCCc3ccccc3C2C1 (stereo unspecified)', 'inactive'),
  ('Cc1c(-c2cccnc2)c2ccccc2n1CCCCC(=O)O', 'active'),
  ('CC1(C)CC(=O)CC(C)(C)N1', 'inactive'),
  ('C[Si](C)(C)O[Si](C)(C)O[Si](C)(C)C', 'inactive'),
  ('CC(COc1ccccc1)NC(C)C(O)c1ccc(O)cc1 (stereo unspecified)', 'inactive');

Now consider a different compound.
query: Each compound tested received a call. Report the one for Cc1nc2sccn2c(=O)c1CCN1CCC(=C(c2ccc(F)cc2)c2ccc(F)cc2)CC1 .
result: inactive

----------
experiment: A CellTox Green Cytotoxicity Assay to monitor cytotoxicity in HEK293 cells - 8 hour (AID 1224884); details: CellTox Green fluorescence; series mostly up to 76.8 µM; note: nearly all actives have a fitted effect of over 35% in size
Results filed as inconclusive are left out. Calls of active or inactive are those of the source. Calls follow the shape of the dose curve; as a rule, active = well fitted activation curve with a large enough effect in the repeat runs; inconclusive = weak or mixed curves; inactive = flat fitted curve, though single readings scatter.
// allowed return values: active, inactive

Here's what some known entries look like.
INSERT INTO results (compound, assigned_label) VALUES
  ('Cc1cc(N)n(-c2ccccc2)n1', 'inactive'),
  ('CS(C)=O', 'inactive'),
  ('Nc1ccccc1Nc1ccccc1', 'inactive'),
  ('CC(CCl)OC(C)CCl (stereo not drawn)', 'inactive'),
  ('Cc1ccc(Cl)c(OCC(O)CNC(C)(C)C)c1 (stereo not drawn)', 'inactive'),
  ('CCCCCCCCCCCCCCCCN', 'active');

query: Returns: the outcome recorded for CCCCCCCCCCCC(=O)OCC in this assay.
result: inactive

query: Recorded call for O=C(O)c1c2ccccc2cc2ccccc12 ?
result: inactive

----------
experiment: qHTS assay to test for compound auto fluorescence at 590 nm (red) in HEK293 cell free culture (AID 720683); conditions: cell-free medium autofluorescence, Ex540/Em590 red; series mostly up to 91.3 µM; note: % is set by controls: 0 for no effect and ±100 for the full control effect
Active and inactive are the calls of the source. The call rests on the fitted dose curve; in most records, active means well fitted curve in the direction sought with a large enough effect in the repeat runs; inconclusive means weak or mixed curves; inactive means flat fitted curve, though single readings scatter.
measured_metric: fluorescence, % of fluorescent control

These recorded examples may help you get a feel for the data.
INSERT INTO results (chemical_structure, measured_metric, measured_result) VALUES
  ('COC(=O)/C=C/C(C)=C\C=C\C(C)=C\C=C\C=C(C)\C=C\C=C(C)\C=C\C(=O)O', 'fluorescence, % of fluorescent control', 'inactive'),
  ('CC1(C)CC(O)CC(C)(C)N1[O]', 'fluorescence, % of fluorescent control', 'inactive'),
  ('SCCOCCOCCS', 'fluorescence, % of fluorescent control', 'inactive'),
  ('O=C(O)c1cccc(C(=O)O)c1C(=O)O', 'fluorescence, % of fluorescent control', 'inactive'),
  ('O=C(N[C@@H](Cc1ccccc1)[C@@H](O)C(=O)N1C[C@@H](O)[C@@H](O)C1)c1cc2cc(Cl)ccc2[nH]1', 'fluorescence, % of fluorescent control', 'inactive');

Okay, now this compound:
query: Report fluorescence, % of fluorescent control for CC(=O)OCC(=O)[C@@]1(O)CC[C@H]2[C@@H]3CCC4=CC(=O)C=C[C@]4(C)[C@@]3(F)[C@@H](O)C[C@@]21C please.
result: 0.0194% [at 18.6 µM] (inactive)

----------
molecular target: Nuclear receptor subfamily 1 group I member 3 (Homo sapiens) (UniProt Q14994); experiment: qHTS assay to identify small molecule agonists of the constitutive androstane receptor (CAR) signaling pathway (AID 1224839); conditions: HepG2 hCAR CYP2B6-luciferase, agonist mode, 24 h; series mostly up to 92.4 µM; note: nearly all actives have a fitted effect of over 15% in size;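 for activation: HepG2 cells stably carrying human CAR and a CYP2B6 luciferase reporter; % is set by controls: 0 for no effect and ±100 for the full control effect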
Sequence (Q14994 whole entry, looked up): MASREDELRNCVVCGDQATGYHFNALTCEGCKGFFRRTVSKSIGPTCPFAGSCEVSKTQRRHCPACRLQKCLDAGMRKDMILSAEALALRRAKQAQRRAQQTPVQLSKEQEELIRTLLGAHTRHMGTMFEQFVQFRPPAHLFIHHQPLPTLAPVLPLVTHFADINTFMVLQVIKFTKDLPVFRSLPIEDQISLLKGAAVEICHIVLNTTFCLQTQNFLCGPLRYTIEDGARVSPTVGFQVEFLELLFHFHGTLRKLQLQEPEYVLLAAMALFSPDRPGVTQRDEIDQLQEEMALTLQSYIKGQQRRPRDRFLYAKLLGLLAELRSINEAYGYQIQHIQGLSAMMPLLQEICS
Inconclusive results are not listed. Activity calls are given as the source filed them. The call rests on the fitted dose curve; in most records, active means well fitted activation curve with a large enough effect in the repeat runs; inconclusive means weak or mixed curves; inactive means no such curve, though single readings can be large or run the other way.
Permitted responses: active, inactive

INSERT INTO measurements (compound, assigned_label) VALUES
  ('CC(=O)c1cccnc1', 'inactive');

query: Tell me the recorded outcome of this test for O=C(O)c1ccc(O)c(O)c1 .
result: inactive

query: Lab log entry: CC(C)(C(=O)O)c1ccc(C(O)CCCN2CCC(C(O)(c3ccccc3)c3ccccc3)CC2)cc1 (stereo not given) — outcome as called in the assay?
result: inactive

query: Please state the recorded outcome for this compound: Nc1cccc2c(=O)[nH][nH]c(=O)c12
result: inactive

query: What outcome does the record of this test show for CCCCCCC/C=C/C=O ?
result: inactive

query: What did this assay record as the result for CC(CN=Cc1ccccc1O)N=Cc1ccccc1O (stereo not given) ?
result: inactive

query: Test call for this compound, please: CCC(C(=O)O)c1ccc(N2Cc3ccccc3C2=O)cc1 (stereo not given)
result: active

query: Which outcome was entered for the compound C1CCN(CN2CCCCC2)CC1 in this test?
result: inactive

query: Give the logged outcome of this assay for the following compound: O=C(O)c1ccccc1-n1cc(C(=O)O)c(=O)c2cc(Nc3c(F)cc(F)cc3Cl)c(Cl)cc21
result: inactive

query: Hi, sorry to bother you, what did the test record for FC(F)(Cl)C(F)(Cl)Cl ?
result: inactive

query: Which outcome did this test record for the compound CC(=O)Oc1cccc2c1C(=O)c1c(OC(C)=O)cc(C(=O)O)cc1C2=O ?
result: inactive

query: Per the assay record, what outcome was assigned to CCc1cnc(C(=O)O)c(C(=O)O)c1 ?
result: inactive

query: Recorded call for NC(=O)c1ccccc1 ?
result: inactive

query: Could you kindly confirm the outcome this assay logged for CC[C@H](NC(C)C)[C@H](O)c1ccc(O)c2[nH]c(=O)ccc12 ?
result: inactive

query: Tell me the assay call for CC(=O)Nc1ccccc1O please.
result: inactive

query: Hello, I am checking results. What call was entered for CC(C)CCCCCOC(=O)CS ?
result: inactive

query: Look up the recorded call for CC(C)Cc1nccs1 in this test.
result: inactive

----------
target: Estrogen receptor (Homo sapiens) (UniProt P03372); experiment: qHTS assay to identify small molecule agonists of the estrogen receptor alpha (ER-alpha) signaling pathway (AID 743075); settings: HEK293 ER-alpha-UAS-bla, beta-lactamase FRET ratio, 18 h; series mostly up to 70.1 µM;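 note: HEK293 GripTite cells with ER-alpha and UAS-driven beta-lactamase reporter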
Sequence (P03372 whole entry, looked up): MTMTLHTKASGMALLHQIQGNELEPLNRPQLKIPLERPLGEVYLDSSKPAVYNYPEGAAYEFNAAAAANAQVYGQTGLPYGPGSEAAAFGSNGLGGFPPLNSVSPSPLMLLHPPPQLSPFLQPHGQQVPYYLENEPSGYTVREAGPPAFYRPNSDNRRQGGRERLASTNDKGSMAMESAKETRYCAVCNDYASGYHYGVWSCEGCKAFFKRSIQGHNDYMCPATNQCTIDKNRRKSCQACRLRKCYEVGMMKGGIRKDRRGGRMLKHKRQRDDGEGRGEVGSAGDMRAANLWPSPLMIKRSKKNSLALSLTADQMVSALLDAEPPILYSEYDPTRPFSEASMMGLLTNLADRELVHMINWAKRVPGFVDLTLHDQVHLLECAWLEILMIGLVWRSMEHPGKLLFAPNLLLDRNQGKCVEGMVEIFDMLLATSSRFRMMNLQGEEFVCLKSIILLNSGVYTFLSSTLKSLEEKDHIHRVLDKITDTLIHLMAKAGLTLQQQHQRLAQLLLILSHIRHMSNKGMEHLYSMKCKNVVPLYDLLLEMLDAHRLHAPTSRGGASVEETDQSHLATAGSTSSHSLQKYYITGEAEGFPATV
Activity calls are given as the source filed them. Calls come from the whole dose curve.
Your answer must be one of the following: YES for active, NO for inactive

Example entries begin here.
INSERT INTO measurements (compound, target, assigned_label) VALUES
  ('CCCC(=O)OCCC(C)C', 'Estrogen receptor (Homo sapiens) (UniProt P03372)', 'NO'),
  ('O=C(OCCOCCOCCOC(=O)c1ccccc1)c1ccccc1', 'Estrogen receptor (Homo sapiens) (UniProt P03372)', 'NO'),
  ('Nc1ccc(C(=O)Oc2ccccc2)c(O)c1', 'Estrogen receptor (Homo sapiens) (UniProt P03372)', 'YES'),
  ('Cc1nc2sccn2c(=O)c1CCN1CCC(=C(c2ccc(F)cc2)c2ccc(F)cc2)CC1', 'Estrogen receptor (Homo sapiens) (UniProt P03372)', 'NO'),
  ('O=c1c2ccccc2oc2ccccc12', 'Estrogen receptor (Homo sapiens) (UniProt P03372)', 'NO'),
  ('O=C(Cl)c1cc(Cl)cc(Cl)c1', 'Estrogen receptor (Homo sapiens) (UniProt P03372)', 'NO');

Next item in the queue.
query: Per the records of this test, what outcome belongs to C1CCN(CN2CCCCC2)CC1 ?
result: NO

----------
test: qHTS assay to test for compound auto fluorescence at 590 nm (red) in HepG2 cells (AID 720674); conditions: HepG2 autofluorescence, red 540/590 nm, 1 h; series mostly up to 91.3 µM; note: % is set by controls: 0 for no effect and ±100 for the full control effect
Active and inactive are the calls of the source. The call rests on the fitted dose curve; in most records, active means well fitted curve in the direction sought with a large enough effect in the repeat runs; inconclusive means weak or mixed curves; inactive means flat fitted curve, though single readings scatter.
measured_metric: fluorescence, relative to Rose Bengal

Completed entries (count: 5):
INSERT INTO results (compound, measured_result) VALUES
  ('Nc1ncnc2c1ncn2[C@@H]1O[C@H](CO)[C@@H](O)[C@H]1O', 'inactive'),
  ('C/C=C1\[C@H]2C=C(C)C[C@]1(N)c1ccc(=O)[nH]c1C2', 'inactive'),
  ('CC1=C(C)C(=O)C(C(CCCCCC(=O)O)c2ccccc2)=C(C)C1=O (stereo unspecified)', 'inactive'),
  ('CCc1ccc2c(c1)C(=O)c1ccccc1C2=O', 'inactive'),
  ('CCCCCCCCCCCCCCCCC(=O)O', 'inactive');

query: Looking for the measured fluorescence, relative to Rose Bengal of CCCCCCC/C=C/C=O , can you help?
result: inactive

query: Look up fluorescence, relative to Rose Bengal: OCCCO
result: inactive

query: Which fluorescence, relative to Rose Bengal is listed for CCCOC(C)=O ?
result: inactive

query: For the compound CC(C)Oc1ccccc1O , what fluorescence, relative to Rose Bengal is on record?
result: inactive

query: fluorescence, relative to Rose Bengal for Cc1ccc2c(Cl)cc(Cl)c(O)c2n1 ?
result: inactive

query: # query: fluorescence, relative to Rose Bengal of entry Cc1ccccc1CCO
result: inactive

query: Consider the compound shown here: CC(=O)c1cccnc1 What is its recorded fluorescence, relative to Rose Bengal?
result: inactive

query: Please give the measured fluorescence, relative to Rose Bengal for this compound: O=C1C=CCCC1
result: inactive

query: GET /values?readout=fluorescence, relative to Rose Bengal&item= Nc1ccccc1Nc1ccccc1
result: inactive

query: Using the record for CCCc1ccc(OC)cc1 , report its fluorescence, relative to Rose Bengal.
result: inactive

Cited source for all entries: PubChem BioAssay (Tox21)
